The reported measurements were obtained from the supplement of paper PMC3334620.

measured-on: Mot3 (UniProt P54785)
Sequence: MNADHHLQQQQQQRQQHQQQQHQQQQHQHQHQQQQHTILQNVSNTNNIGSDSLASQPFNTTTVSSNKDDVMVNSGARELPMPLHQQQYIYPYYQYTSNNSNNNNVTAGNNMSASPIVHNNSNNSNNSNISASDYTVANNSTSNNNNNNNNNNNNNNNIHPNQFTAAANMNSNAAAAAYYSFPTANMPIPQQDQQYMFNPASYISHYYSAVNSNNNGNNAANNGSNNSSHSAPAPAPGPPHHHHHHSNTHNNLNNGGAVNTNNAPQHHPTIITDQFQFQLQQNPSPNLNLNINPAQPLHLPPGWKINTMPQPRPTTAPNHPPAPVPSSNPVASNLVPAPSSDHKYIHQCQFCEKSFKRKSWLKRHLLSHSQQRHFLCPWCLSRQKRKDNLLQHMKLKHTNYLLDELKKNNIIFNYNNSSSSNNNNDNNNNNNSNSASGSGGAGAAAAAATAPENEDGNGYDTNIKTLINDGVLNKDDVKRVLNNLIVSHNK
measurement-description: PBM E-score (8-mer binding enrichment) (E-score (-0.5 to 0.5)); higher = stronger / more preferred TF binding
conditions: protein concentration: 200 nM; construct: GST-full length
Over roughly 33,000 sequences, “E-score (-0.5 to 0.5)” has its median near -0.035; the highest 2% begin near 0.34. Shown is part of a subset that was picked to be rich in the highest values.
Please mark Fulfilled if the recorded PBM E-score is equal to or greater than 0.05, and Not fulfilled if it falls below.

biosequence	measured-on	group-label
AAATGTTA	Mot3 (UniProt P54785)	Fulfilled
ACTCGCCC	Mot3 (UniProt P54785)	Not fulfilled
CTACTGGA	Mot3 (UniProt P54785)	Not fulfilled
ACATGTTC	Mot3 (UniProt P54785)	Fulfilled
AAGGCATA	Mot3 (UniProt P54785)	Fulfilled

*Q* Does the reported PBM E-score for CTATGCAA fall at or above the 0.05 mark?
*A* Not fulfilled

*Q* Hi, just wondering whether AGTCTGAA shows PBM E-score of 0.05 or higher.
*A* Not fulfilled

*Q* Evaluate GGGAAACC : PBM E-score at minimum 0.05?
*A* Not fulfilled

*Q* Is PBM E-score for AAGGCATG at or above 0.05?
*A* Fulfilled

*Q* Form field: PBM E-score at least 0.05? Entry: CACATACA
*A* Fulfilled

*Q* Is it the case that ACATGTTG has PBM E-score reaching or exceeding 0.05?
*A* Fulfilled

*Q* Determine whether measured PBM E-score meets or exceeds 0.05 for AAGGCATC
*A* Fulfilled

*Q* Identify whether the reported PBM E-score of the following sequence is 0.05 or greater: AGATGTTG
*A* Not fulfilled

*Q* Does GACATAGA have a reported PBM E-score of at least 0.05?
*A* Fulfilled

*Q* Please indicate if the recorded PBM E-score for AAAGTGTG meets or exceeds 0.05.
*A* Fulfilled

*Q* Item ACGAGAAC with PBM E-score of 0.05 or above?
*A* Not fulfilled

*Q* Confirm if PBM E-score reported for the sequence ACACGTTC is 0.05 or above.
*A* Fulfilled

*Q* Threshold query (PBM E-score >= 0.05) on AGGAAACG
*A* Fulfilled
